- Experimental protocol: Rat pharmacokinetic studies
- Format: in vivo, male SD rats
- Condition set: male, SD, plasma, PO 5 mg/kg
Assay metric: Tmax (min)
Answers are plain numbers, in min.

{"Compound smiles": "CC(C)(C)NC[C@H](O)c1cccc(C(F)(F)F)n1", "Tmax [min]": 70.2}

Consider now this further compound.
Entry under test: "CC(C)(C)NC[C@H](O)c1cccc(C#N)n1" . Its Tmax was 45

----------
- Experimental target: UniProtKB P07550
- Sequence (P07550 whole entry, species assumed): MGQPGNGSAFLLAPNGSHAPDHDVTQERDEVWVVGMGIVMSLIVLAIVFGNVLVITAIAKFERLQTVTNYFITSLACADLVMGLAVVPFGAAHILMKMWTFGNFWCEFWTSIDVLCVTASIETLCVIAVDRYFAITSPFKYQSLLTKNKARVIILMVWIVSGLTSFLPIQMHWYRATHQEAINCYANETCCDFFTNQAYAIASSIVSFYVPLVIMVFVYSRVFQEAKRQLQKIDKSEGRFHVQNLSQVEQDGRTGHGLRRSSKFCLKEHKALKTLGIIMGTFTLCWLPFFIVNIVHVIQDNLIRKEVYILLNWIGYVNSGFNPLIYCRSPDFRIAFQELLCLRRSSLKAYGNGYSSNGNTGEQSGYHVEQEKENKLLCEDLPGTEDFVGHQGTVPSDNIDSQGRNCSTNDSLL
- Experimental protocol: cAMP Gs dynamic HTRF assay, β2 expressing CHO cells
- Assay type: cell-based
- Condition set: B2-AR; CHO-K cells; read-out: Average EC50 [Receptor subtype: B2-AR; Cell type: CHO-K]
pEC50: −log10 of the molar value.
Assay metric: pEC50

Some solved cases for reference:
{"Molecule": "COc1ncccc1[C@@H](O)CNC(C)(C)C", "Assay metric": "pEC50", "Result value": "> 8.00"}
{"Molecule": "CN(C)c1ncccc1[C@@H](O)CNC(C)(C)C", "Assay metric": "pEC50", "Result value": "< 6.00"}
{"Molecule": "CC(C)(C)NC[C@@H](O)c1cccc(C(F)(F)F)n1", "Assay metric": "pEC50", "Result value": "< 6.00"}
{"Molecule": "CC(C)(C)NC[C@H](O)c1cccc(-c2cccc(F)c2)n1", "Assay metric": "pEC50", "Result value": "> 8.00"}
{"Molecule": "CC(C)(C)NC[C@H](O)c1nc(C(F)(F)F)cc2ccccc12", "Assay metric": "pEC50", "Result value": "< 6.00"}

Respectfully, I request pEC50 for each entry included below.
1. Cc1ncccc1[C@H](O)CNC(C)(C)C
2. CC(C)(C)NC[C@@H](O)c1cccc(OC(F)(F)F)n1
3. CC(C)(C)NC[C@@H](O)c1cccc(N2CCOCC2)n1
4. CC(C)(C)NCC(O)c1cccnc1C(=O)NC(C)(C)C (stereo not drawn)

[out]
1: < 6.00; 2: 6.00 to 7.00; 3: 7.00 to 8.00; 4: < 6.00
